- ASSAY INFO: Example 4: dose response of FKBP constructs 160-255, Ec50, Ec90 and fold change (raw and normalized to mCherry)
- Format: cell-based
- TEST CONDITIONS: fold change during initial analysis
Please provide measured FC (fold change) for the entries that follow.
Lab note: record the figure alone, no unit after it.

Answer with the recorded FC (fold change) of FKBP-171 (protein, Description of sequence: Construct Name: FKBP-171; Mutation(s): Q72R Q84E A117W DRD M54A D50L) HCPIKSRKGLVLHAHYTGKLEDGTEFDSSLPRNQPFVFSLGTGEVIKGWDQGLLGMCEGEKRKLVIPSELGYGERGWPPKIPGGATLVFEVELLKIER only. 60.3

Answer with the recorded FC (fold change) of FKBP-194 (protein, Description of sequence: Construct Name: FKBP-194; Mutation(s): Q72R Q84E A117W V85R DRD L104V) HCPIKSRKGDVLHMHYTGKLEDGTEFDSSLPRNQPFVFSLGTGERIKGWDQGLLGMCEGEKRKVVIPSELGYGERGWPPKIPGGATLVFEVELLKIER only. 24.8

Answer with the recorded FC (fold change) of FKBP-183 (protein, Description of sequence: Construct Name: FKBP-183; Mutation(s): Q72R Q84E A117W V85R DRD M54A L133G) HCPIKSRKGDVLHAHYTGKLEDGTEFDSSLPRNQPFVFSLGTGERIKGWDQGLLGMCEGEKRKLVIPSELGYGERGWPPKIPGGATLVFEVEGLKIER only. 4

Answer with the recorded FC (fold change) of FKBP-170 (protein, Description of sequence: Construct Name: FKBP-170; Mutation(s): Q72R T82W Q84E A117W DRD M54A V85R) HCPIKSRKGDVLHAHYTGKLEDGTEFDSSLPRNQPFVFSLGWGERIKGWDQGLLGMCEGEKRKLVIPSELGYGERGWPPKIPGGATLVFEVELLKIER only. 47.6

Answer with the recorded FC (fold change) of FKBP-255: FKBP13 DRD-AcGFP construct of Table 10 (protein, Description of sequence: Construct Name: FKBP-255; Mutation(s): Q72R Q84E A117W V85R DRD G99R) HCPIKSRKGDVLHMHYTGKLEDGTEFDSSLPRNQPFVFSLGTGERIKGWDQGLLGMCEREKRKLVIPSELGYGERGWPPKIPGGATLVFEVELLKIER only. 33.0

Answer with the recorded FC (fold change) of FKBP-247 (protein, Description of sequence: Construct Name: FKBP-247; Mutation(s): Q72R Q84E A117W V85R DRD S69H M54A) HCPIKSRKGDVLHAHYTGKLEDGTEFDSHLPRNQPFVFSLGTGERIKGWDQGLLGMCEGEKRKLVIPSELGYGERGWPPKIPGGATLVFEVELLKIER only. 35.0

Value source: patent US20250186614A1
